- System Tested: CSTF3
- Protocol Notes: pooled miR-30 sensor sort-seq; sequence = guide strand; note: reference of the scale not given here
- Reported Conditions: shRNA
The entries below are paired with their reported sensor-assay potency score (higher = more potent).
Measurement Label: sensor-assay potency score (higher = more potent)

>  <Entry Sequence>
TACTTGTTATAGTCTCTCCAGA

>  <Meas Value>
-0.878

$$$$
>  <Entry Sequence>
TTGTTTTTTCTCAAGAACCATG

>  <Meas Value>
-1.15

$$$$
>  <Entry Sequence>
TTCCATTCCAATTTTATCCAGT

>  <Meas Value>
-0.0677

$$$$
>  <Entry Sequence>
TTTCTTTGTAACTTGGTAGTTT

>  <Meas Value>
-0.139

$$$$
>  <Entry Sequence>
TGAACTTGTATCTATCTACTAG

>  <Meas Value>
-0.0129

$$$$
>  <Entry Sequence>
TTTGTCTATAGGTTGATTCTGT

>  <Meas Value>
-0.133

$$$$
>  <Entry Sequence>
TTTGGTATCTTGCATCTTCGGA

>  <Meas Value>
-0.026

$$$$
>  <Entry Sequence>
TTTAGCTAAATGAATATTGATA

>  <Meas Value>
-0.643

$$$$
>  <Entry Sequence>
TTTGCTTAGAGCATAGGTCTGT

>  <Meas Value>
0.755

$$$$
>  <Entry Sequence>
TTGATCATCGGATTAACACAAC

>  <Meas Value>
-0.951

$$$$
>  <Entry Sequence>
TACTGCATTACTTTCCACGGGG

>  <Meas Value>
0.0681

$$$$

* * *

- System Tested: CMPK1
- Protocol Notes: pooled miR-30 sensor sort-seq; sequence = guide strand
- Reported Conditions: shRNA
Measurement Label: sensor-assay potency score (higher = more potent)

>  <Entry Sequence>
TACAACTTTGTACAAGTTGTAG

>  <System Tested>
CMPK1

>  <Meas Value>
-1.32

$$$$
>  <Entry Sequence>
ATAAACACTAAAATGCTCCTAA

>  <System Tested>
CMPK1

>  <Meas Value>
0.491

$$$$
>  <Entry Sequence>
TTTACCAAACACATTGTGCAAG

>  <System Tested>
CMPK1

>  <Meas Value>
-0.707

$$$$
>  <Entry Sequence>
TATTCTTCTGAGCATTGGCAGC

>  <System Tested>
CMPK1

>  <Meas Value>
-1.31

$$$$
>  <Entry Sequence>
TTAGAAGCATCTATTTTCTTGA

>  <System Tested>
CMPK1

>  <Meas Value>
0.0499

$$$$
>  <Entry Sequence>
TACATCTGCCTTCCCATCCATG

>  <System Tested>
CMPK1

>  <Meas Value>
-0.919

$$$$
>  <Entry Sequence>
TATCTCAACTGGTACAATCTTT

>  <System Tested>
CMPK1

>  <Meas Value>
-0.621

$$$$
>  <Entry Sequence>
TTGTTTACCAAACACATTGTGC

>  <System Tested>
CMPK1

>  <Meas Value>
-0.615

$$$$
>  <Entry Sequence>
TCAACTGGTACAATCTTTCCTT

>  <System Tested>
CMPK1

>  <Meas Value>
0.503

$$$$

* * *

- System Tested: TMEM110
- Protocol Notes: pooled miR-30 sensor sort-seq; sequence = guide strand
- Reported Conditions: shRNA
Each entry below carries its recorded sensor-assay potency score (higher = more potent).
Measurement Label: sensor-assay potency score (higher = more potent)

>  <Entry Sequence>
TTCTAGCTTAGCTTTCGTCTTC

>  <Meas Value>
-0.0536

$$$$
>  <Entry Sequence>
TTAAGTCACAGTAGTCTGGGGG

>  <Meas Value>
-0.231

$$$$
>  <Entry Sequence>
TTGGAAGTGTCTAAAAACCATA

>  <Meas Value>
-1.5

$$$$
>  <Entry Sequence>
TTCAGTGAGATCTGCTAGGTAT

>  <Meas Value>
0.113

$$$$

* * *

- System Tested: TRIM23
- Protocol Notes: pooled miR-30 sensor sort-seq; sequence = guide strand
- Reported Conditions: shRNA
Measurement Label: sensor-assay potency score (higher = more potent)

>  <Entry Sequence>
ATCAACAACACTTAGAGCCATT

>  <System Tested>
TRIM23

>  <Meas Value>
-1.25

$$$$
>  <Entry Sequence>
AACTCTACAATCATCCTGCTGC

>  <System Tested>
TRIM23

>  <Meas Value>
0.546

$$$$
>  <Entry Sequence>
TACATGTTCTGTGTGAGCCATT

>  <System Tested>
TRIM23

>  <Meas Value>
-1.01

$$$$
>  <Entry Sequence>
TAGTAGTTTTTCCAGCACCATC

>  <System Tested>
TRIM23

>  <Meas Value>
-1.64

$$$$
>  <Entry Sequence>
TAAGCTCGAATACATGACCGGG

>  <System Tested>
TRIM23

>  <Meas Value>
-0.886

$$$$
>  <Entry Sequence>
TTTAACTTAAACAAGATAGTAG

>  <System Tested>
TRIM23

>  <Meas Value>
0.417

$$$$
>  <Entry Sequence>
TACTGAATGCTTGTGACCCTGG

>  <System Tested>
TRIM23

>  <Meas Value>
0.0097

$$$$
>  <Entry Sequence>
TACAACAAACACAACAGCTTGA

>  <System Tested>
TRIM23

>  <Meas Value>
0.537

$$$$
>  <Entry Sequence>
TAAAATTGATGCTCGGATCTGA

>  <System Tested>
TRIM23

>  <Meas Value>
0.781

$$$$
>  <Entry Sequence>
TATCTAAAATTGATGCTCGGAT

>  <System Tested>
TRIM23

>  <Meas Value>
-0.778

$$$$
>  <Entry Sequence>
TTTCCGTTAACAACTTTGCAAG

>  <System Tested>
TRIM23

>  <Meas Value>
-1.22

$$$$
>  <Entry Sequence>
AACTTCTGTAAACTGCTGCTGC

>  <System Tested>
TRIM23

>  <Meas Value>
0.168

$$$$
>  <Entry Sequence>
TAGTTTGACAACCTTCTTCCAA

>  <System Tested>
TRIM23

>  <Meas Value>
-0.272

$$$$
>  <Entry Sequence>
TAGAGGAACTCGCCTGTGCTTT

>  <System Tested>
TRIM23

>  <Meas Value>
-1.17

$$$$

* * *

- System Tested: PIP5K1B
- Protocol Notes: pooled miR-30 sensor sort-seq; sequence = guide strand
- Reported Conditions: shRNA
Measurement Label: sensor-assay potency score (higher = more potent)

>  <Entry Sequence>
TTGAGGACACAATCTCCTGTGA

>  <Meas Value>
-0.569

$$$$
>  <Entry Sequence>
TTCGCTTATACGTTGAGCCTTT

>  <Meas Value>
0.43

$$$$
>  <Entry Sequence>
TAATCCATGATCTTGAAGCTTT

>  <Meas Value>
-0.406

$$$$
>  <Entry Sequence>
TTTGAATAGAGTGTAGGCCTGT

>  <Meas Value>
0.71

$$$$
>  <Entry Sequence>
TTGCATACAATACAGTCCGTAA

>  <Meas Value>
-1.09

$$$$
>  <Entry Sequence>
TCTAACTTCTTCATTAACCTAT

>  <Meas Value>
0.135

$$$$
>  <Entry Sequence>
TTAAATTCATGTAATAGCCTGG

>  <Meas Value>
0.247

$$$$
>  <Entry Sequence>
TTGAACTGGAAGGTAACCCTTT

>  <Meas Value>
0.268

$$$$

* * *

- System Tested: CORIN
- Protocol Notes: pooled miR-30 sensor sort-seq; sequence = guide strand
- Reported Conditions: shRNA
Use -0.5 as the dividing line for sensor-assay potency score (higher = more potent), with the line itself on the class 1 side and lower values as class 0.

>  <Entry Sequence>
ATGATCTTGATATACATCCAGA

>  <System Tested>
CORIN

>  <Qualitative Label>
class 0

$$$$
>  <Entry Sequence>
TTGATTGTCTGAATTTTCCTCT

>  <System Tested>
CORIN

>  <Qualitative Label>
class 1

$$$$
>  <Entry Sequence>
TTGAACTTTCATACAATCGTGA

>  <System Tested>
CORIN

>  <Qualitative Label>
class 1

$$$$
>  <Entry Sequence>
TTGATATACATCCAGAATGGGG

>  <System Tested>
CORIN

>  <Qualitative Label>
class 0

$$$$
>  <Entry Sequence>
TTTATTGCTGTCTTTTATCAGT

>  <System Tested>
CORIN

>  <Qualitative Label>
class 0

$$$$
>  <Entry Sequence>
TATTTGTAAGAATAACATCGGA

>  <System Tested>
CORIN

>  <Qualitative Label>
class 0

$$$$
>  <Entry Sequence>
TTGAGTATGTAGCTACAACTGT

>  <System Tested>
CORIN

>  <Qualitative Label>
class 0

$$$$
>  <Entry Sequence>
TAAATCTGTCTTTTAATCCATT

>  <System Tested>
CORIN

>  <Qualitative Label>
class 0

$$$$

* * *

- System Tested: EIF3M
- Protocol Notes: pooled miR-30 sensor sort-seq; sequence = guide strand
- Reported Conditions: shRNA
Binary classification by sensor-assay potency score (higher = more potent), with 0.09 as an inclusive lower bound for true; all other cases are false.

>  <Entry Sequence>
TTTTCTAACTTGATCCAGCTCA

>  <Qualitative Label>
false

$$$$
>  <Entry Sequence>
TTAACAACTGCAGTCTCAGAGA

>  <Qualitative Label>
false

$$$$
>  <Entry Sequence>
TTCAACATCTTTATCATCCTCC

>  <Qualitative Label>
true

$$$$
>  <Entry Sequence>
AACATCTTTATCATCCTCCTTC

>  <Qualitative Label>
true

$$$$
>  <Entry Sequence>
TTGCTTAACAACTGCAGTCTCA

>  <Qualitative Label>
false

$$$$
>  <Entry Sequence>
TACAGGAGTATTCTTATCCATC

>  <Qualitative Label>
false

$$$$
>  <Entry Sequence>
TGAAGCAGCATCACTCTTCTTA

>  <Qualitative Label>
false

$$$$
>  <Entry Sequence>
TAAAGTAGTCTTAAAAGGGTGT

>  <Qualitative Label>
true

$$$$
>  <Entry Sequence>
AACATCATCAGCTCCAATCTGA

>  <Qualitative Label>
true

$$$$
>  <Entry Sequence>
TTGTCCTCTGTGTAACTTCCGA

>  <Qualitative Label>
false

$$$$
